Test system: Staphylococcus aureus
Assay: Compound was tested for the inhibition of cell wall biosynthesis and growth against Staphylococcus aureus (ATCC 29213) (sensitive strain)
Assay type: functional
For each of the compounds below, state its MIC.
Numeric only. Scale: µg/mL

[ask] Give MIC for CCCCCCCCCCCCCCC(OP(=O)(O)OC1OC(C(N)=O)C(OC)C(NC(=O)Nc2ccc(Cl)c(C(F)(F)F)c2)C1OC1OC(CO)C(O)C(O)C1NC(=O)c1cccc(C(F)(F)F)c1)C(=O)O (stereo not drawn) tested on Staphylococcus aureus.
[reply] 6.25

[ask] Under Staphylococcus aureus: report MIC of CN[C@H](CC(C)C)C(=O)N[C@H]1C(=O)N[C@@H](CC(N)=O)C(=O)N[C@H]2C(=O)N[C@H]3C(=O)N[C@H](C(=O)N[C@H](C(=O)O)c4cc(O)cc(O)c4-c4cc3ccc4O)[C@H](O)c3ccc(c(Cl)c3)Oc3cc2cc(c3O[C@@H]2O[C@H](CO)[C@@H](O)[C@H](O)[C@H]2O[C@H]2C[C@](C)(N)[C@H](O)[C@H](C)O2)Oc2ccc(cc2Cl)[C@H]1O [VANCOMYCIN] .
[reply] 3.13

[ask] Report measured MIC on Staphylococcus aureus; entry: C=C(C/C=C(\C)CCC=C(C)C)CCC(C)(C)/C=C/CC/C(C)=C\CO[C@H](COP(=O)(O)O[C@H]1O[C@@H](C(N)=O)[C@@](C)(O)[C@H](OC(N)=O)[C@@H]1O[C@@H]1O[C@@H](CO[C@@H]2O[C@@H](CO)[C@@H](O)[C@H](O)[C@@H]2O)[C@@H](O[C@@H]2O[C@@H](C)[C@@H](O[C@@H]3O[C@@H](C(=O)NC4=C(O)CCC4=O)[C@H](O)[C@H](O)[C@@H]3O)[C@H](O)[C@@H]2NC(C)=O)[C@@H](O)[C@@H]1NC(C)=O)C(=O)O [MOENOMYCIN]
[reply] 0.05

[ask] State, for Staphylococcus aureus, measured MIC of the compound listed here: CCCCCCCCCCCCOP(=O)(O)OC1OC(C(N)=O)C(OC)C(NC(=O)Nc2ccc(Cl)c(C(F)(F)F)c2)C1OC1OC(CO)C(O)C(O)C1NC(=O)c1cccc(C(F)(F)F)c1 (stereo not drawn)
[reply] 6.25

[ask] State, for Staphylococcus aureus, measured MIC of the compound listed here: CCCCCCCCCCCCOP(=O)(O)OC1OC(C(N)=O)C(O)C(NC(=O)Nc2ccc(Cl)c(C(F)(F)F)c2)C1OC1OC(CO)C(O)C(O)C1NC(=O)c1cccc(C(F)(F)F)c1 (stereo not drawn)
[reply] 6.25

[ask] Find MIC for CCCCCCCCCCCCO[C@H](COP(=O)(O)OC1OC(C(N)=O)C(O)C(NC(=O)Nc2ccc(OC(F)(F)F)cc2)C1OC1OC(CO)C(O)C(O)C1NC(=O)c1cccc(C(F)(F)F)c1)C(=O)O (stereo partly drawn) on Staphylococcus aureus and write it down.
[reply] 6.25

[ask] Answer briefly: MIC recorded on Staphylococcus aureus for CCCCCCCCCCCCO[C@H](COP(=O)(O)OC1OC(C(N)=O)C(OC)C(NC(=O)Nc2ccc(Cl)c(C(F)(F)F)c2)C1OC1OC(CO)C(O)C(O)C1NC(=O)c1ccccc1)C(=O)O (stereo partly drawn)
[reply] 12.5

[ask] Name the value of MIC reported for CCCCCCCCCCCCO[C@H](COP(=O)(O)OC1OC(C(N)=O)C(O)C(NC(=O)Nc2ccc(Cl)c(C(F)(F)F)c2)C1OC1OC(CO)C(O)C(O)C1NC(=O)c1cccc(C(F)(F)F)c1)C(=O)O (stereo partly drawn) when tested on Staphylococcus aureus.
[reply] 12.5

###

System: Staphylococcus aureus
Experiment: Compound was tested for the inhibition of cell wall biosynthesis and growth against Staphylococcus aureus (ATCC 43300) (Methicillin-resistant)
Format: functional
measurement-kind: log10 of MIC (log10 of the value in µg/mL)
Hi team, quick reminder: these entries are log10 of MIC (µg/mL).

[ask] For the compound CCCCCCCCCCCCO[C@H](COP(=O)(O)OC1OC(C(N)=O)C(OC)C(NC(=O)Nc2ccc(Cl)c(C(F)(F)F)c2)C1OC1OC(CO)C(O)C(O)C1NC(=O)c1ccccc1)C(=O)O (stereo partly drawn) , report log10 of MIC.
[reply] 1.40

[ask] Give log10 of MIC for the following compound: CCCCCCCCCCCCO[C@H](COP(=O)(O)OC1OC(C(N)=O)C(O)C(NC(=O)Nc2ccc(Cl)c(C(F)(F)F)c2)C1OC1OC(CO)C(O)C(O)C1NC(=O)c1cccc(C(F)(F)F)c1)C(=O)O (stereo partly drawn)
[reply] 1.10

[ask] Quick one: give measured log10 of MIC for CCCCCCCCCCCCCCC(OP(=O)(O)OC1OC(C(N)=O)C(OC)C(NC(=O)Nc2ccc(Cl)c(C(F)(F)F)c2)C1OC1OC(CO)C(O)C(O)C1NC(=O)c1cccc(C(F)(F)F)c1)C(=O)O (stereo not drawn)
[reply] 0.49

[ask] Complete the entry with log10 of MIC for C=C(C/C=C(\C)CCC=C(C)C)CCC(C)(C)/C=C/CC/C(C)=C\CO[C@H](COP(=O)(O)O[C@H]1O[C@@H](C(N)=O)[C@@](C)(O)[C@H](OC(N)=O)[C@@H]1O[C@@H]1O[C@@H](CO[C@@H]2O[C@@H](CO)[C@@H](O)[C@H](O)[C@@H]2O)[C@@H](O[C@@H]2O[C@@H](C)[C@@H](O[C@@H]3O[C@@H](C(=O)NC4=C(O)CCC4=O)[C@H](O)[C@H](O)[C@@H]3O)[C@H](O)[C@@H]2NC(C)=O)[C@@H](O)[C@@H]1NC(C)=O)C(=O)O [MOENOMYCIN]
[reply] -1.21

[ask] Kindly indicate its recorded log10 of MIC. Item: CCCCCCCCCCCCOP(=O)(O)OC1OC(C(N)=O)C(OC)C(NC(=O)Nc2ccc(Cl)c(C(F)(F)F)c2)C1OC1OC(CO)C(O)C(O)C1NC(=O)c1cccc(C(F)(F)F)c1 (stereo not drawn)
[reply] 0.80

[ask] // Input: CN[C@H](CC(C)C)C(=O)N[C@H]1C(=O)N[C@@H](CC(N)=O)C(=O)N[C@H]2C(=O)N[C@H]3C(=O)N[C@H](C(=O)N[C@H](C(=O)O)c4cc(O)cc(O)c4-c4cc3ccc4O)[C@H](O)c3ccc(c(Cl)c3)Oc3cc2cc(c3O[C@@H]2O[C@H](CO)[C@@H](O)[C@H](O)[C@H]2O[C@H]2C[C@](C)(N)[C@H](O)[C@H](C)O2)Oc2ccc(cc2Cl)[C@H]1O [VANCOMYCIN] . Output its log10 of MIC only.
[reply] 0.50

[ask] Read the entry CCCCCCCCCCCCOP(=O)(O)OC1OC(C(N)=O)C(O)C(NC(=O)Nc2ccc(Cl)c(C(F)(F)F)c2)C1OC1OC(CO)C(O)C(O)C1NC(=O)c1cccc(C(F)(F)F)c1 (stereo not drawn) and write its reported log10 of MIC.
[reply] 0.80

[ask] For CCCCCCCCCCCCO[C@H](COP(=O)(O)OC1OC(C(N)=O)C(O)C(NC(=O)Nc2ccc(OC(F)(F)F)cc2)C1OC1OC(CO)C(O)C(O)C1NC(=O)c1cccc(C(F)(F)F)c1)C(=O)O (stereo partly drawn) , write its log10 of MIC.
[reply] 0.80

###

Tested on: Staphylococcus epidermidis
Test: Compound was tested for the inhibition of cell wall biosynthesis and growth against Staphylococcus epidermidis (ATCC 12228) (sensitive strain)
Type: functional
I'd appreciate it if you could supply MIC values for the items below.
The reply should contain only the number, in µg/mL.

[ask] Provide only the value of recorded MIC for CCCCCCCCCCCCO[C@H](COP(=O)(O)OC1OC(C(N)=O)C(O)C(NC(=O)Nc2ccc(OC(F)(F)F)cc2)C1OC1OC(CO)C(O)C(O)C1NC(=O)c1cccc(C(F)(F)F)c1)C(=O)O (stereo partly drawn)
[reply] 6.25

[ask] Read the entry CCCCCCCCCCCCCCC(OP(=O)(O)OC1OC(C(N)=O)C(OC)C(NC(=O)Nc2ccc(Cl)c(C(F)(F)F)c2)C1OC1OC(CO)C(O)C(O)C1NC(=O)c1cccc(C(F)(F)F)c1)C(=O)O (stereo not drawn) and write its reported MIC.
[reply] 6.25

[ask] Give MIC for the following molecule: CCCCCCCCCCCCO[C@H](COP(=O)(O)OC1OC(C(N)=O)C(OC)C(NC(=O)Nc2ccc(Cl)c(C(F)(F)F)c2)C1OC1OC(CO)C(O)C(O)C1NC(=O)c1ccccc1)C(=O)O (stereo partly drawn)
[reply] 12.5

###

Test system: Staphylococcus epidermidis
Test: Compound was tested for the inhibition of cell wall biosynthesis and growth against Staphylococcus epidermidis (ATCC 12228) (sensitive strain)
Assay type: functional
measurement-kind: MIC (µg/mL)
Answer format: numeric, µg/mL implied, no suffix.

[ask] Fill in reported MIC for this entry: CCCCCCCCCCCCOP(=O)(O)OC1OC(C(N)=O)C(O)C(NC(=O)Nc2ccc(Cl)c(C(F)(F)F)c2)C1OC1OC(CO)C(O)C(O)C1NC(=O)c1cccc(C(F)(F)F)c1 (stereo not drawn)
[reply] 12.5

[ask] Return MIC for the following molecule: CCCCCCCCCCCCOP(=O)(O)OC1OC(C(N)=O)C(OC)C(NC(=O)Nc2ccc(Cl)c(C(F)(F)F)c2)C1OC1OC(CO)C(O)C(O)C1NC(=O)c1cccc(C(F)(F)F)c1 (stereo not drawn)
[reply] 6.25

[ask] Annotate the molecule CCCCCCCCCCCCO[C@H](COP(=O)(O)OC1OC(C(N)=O)C(O)C(NC(=O)Nc2ccc(Cl)c(C(F)(F)F)c2)C1OC1OC(CO)C(O)C(O)C1NC(=O)c1cccc(C(F)(F)F)c1)C(=O)O (stereo partly drawn) with its measured MIC.
[reply] 12.5

Where do the numbers come from? From ChEMBL document CHEMBL1132655.
